assay: Inhibition of gp120 in HIV-1 AD8 infected in dog Cf2Th-CD4/CCR5 cells assessed as inhibition of viral entry incubated for 30 mins prior to infection and further incubated for 48 to 72 hrs in presence of firefly D-luciferin free acid and ATP by single-round infection luciferase assay
property: IC50 (nM)

Below, each entry is followed by its recorded IC50 result.
Qu. Recorded IC50 of C=CCC[C@@H]1c2cc(CNC)ccc2[C@H](NC(=O)C(=O)Nc2ccc(Cl)c(F)c2)[C@H]1CNC(=N)N , please.
Ans. 7400

Qu. // query: [H]/N=C(/N)NC[C@H]1[C@H](CC[C@H](O)CO)c2cc(CNC)ccc2[C@@H]1NC(=O)C(=O)Nc1ccc(Cl)c(F)c1
Ans. 910

Qu. Consider next the compound CNCc1ccc2c(c1)[C@@H](CCC(=O)CO)[C@H](CNC(=N)N)[C@H]2NC(=O)C(=O)Nc1ccc(Cl)c(F)c1 in the same way.
Ans. 3350

A = [H]/N=C(/N)NC[C@H]1[C@H](CC[C@@H](O)CO)c2cc(CNC)ccc2[C@@H]1NC(=O)C(=O)Nc1ccc(Cl)c(F)c1
B = CNCc1ccc2c(c1)[C@H](NC(=O)C(=O)Nc1ccc(Cl)c(F)c1)[C@@H](CNC(=N)N)[C@@H]2CCC(O)CO (some centres undefined)
C = CNCc1ccc2c(c1)[C@@H](CCC(O)CO)[C@H](CNC(=N)N)[C@H]2NC(=O)C(=O)Nc1ccc(Cl)c(F)c1 (some centres undefined)
D = CNCc1ccc2c(c1)[C@@H](CCCO)[C@H](CNC(=N)N)[C@H]2NC(=O)C(=O)Nc1ccc(Cl)c(F)c1
Qu. Order each entry by recorded IC50, climbing from the minimum. Lab note: final answer is the ordered label list.
Ans. B, A, C, D
